Reported values: pIC50 for Dipeptidyl peptidase 4 (Homo sapiens, UniProt P27487), one per item.
Formally, pIC50 is defined as -log10 of the concentration c, with c in mol/L.

Worked examples follow.
CCN1CCCN(C(=O)C[C@H](N)Cc2cc(F)c(F)cc2F)CC1 :: 5.19
N[C@@H](CC(=O)N1CCCN(C(=O)c2cncc(C(=O)O)c2)CC1)Cc1cc(F)c(F)cc1F :: 7.17
N[C@@H](CC(=O)N1CCCN(C(=O)c2ccc(S(N)(=O)=O)cc2)CC1)Cc1cc(F)c(F)cc1F :: 6.54
N[C@@H](CC(=O)N1CCCN(C(=O)c2ccccc2)CC1)Cc1cc(F)c(F)cc1F :: 6.29
NC(=O)c1ccc(C(=O)N2CCCN(C(=O)C[C@H](N)Cc3cc(F)c(F)cc3F)CC2)cc1 :: 6.74
Cc1ccc(S(=O)(=O)N2CCCN(C(=O)C[C@H](N)Cc3cc(F)c(F)cc3F)CC2)cc1 :: 6.46
N[C@@H](CC(=O)N1CCCN(C(=O)Nc2ccccc2)CC1)Cc1cc(F)c(F)cc1F :: 5.86
N[C@@H](CC(=O)N1CCCN(C(=O)Nc2ccc(C(=O)O)cc2)CC1)Cc1cc(F)c(F)cc1F :: 6.10
N[C@@H](CC(=O)N1CCCN(S(=O)(=O)c2ccc([N+](=O)[O-])cc2)CC1)Cc1cc(F)c(F)cc1F :: 6.39

Q: Write down the reported pIC50 of CS(=O)(=O)N1CCCN(C(=O)C[C@H](N)Cc2cc(F)c(F)cc2F)CC1 , test system: Dipeptidyl peptidase 4 (Homo sapiens, UniProt P27487).
Sequence (P27487 whole entry): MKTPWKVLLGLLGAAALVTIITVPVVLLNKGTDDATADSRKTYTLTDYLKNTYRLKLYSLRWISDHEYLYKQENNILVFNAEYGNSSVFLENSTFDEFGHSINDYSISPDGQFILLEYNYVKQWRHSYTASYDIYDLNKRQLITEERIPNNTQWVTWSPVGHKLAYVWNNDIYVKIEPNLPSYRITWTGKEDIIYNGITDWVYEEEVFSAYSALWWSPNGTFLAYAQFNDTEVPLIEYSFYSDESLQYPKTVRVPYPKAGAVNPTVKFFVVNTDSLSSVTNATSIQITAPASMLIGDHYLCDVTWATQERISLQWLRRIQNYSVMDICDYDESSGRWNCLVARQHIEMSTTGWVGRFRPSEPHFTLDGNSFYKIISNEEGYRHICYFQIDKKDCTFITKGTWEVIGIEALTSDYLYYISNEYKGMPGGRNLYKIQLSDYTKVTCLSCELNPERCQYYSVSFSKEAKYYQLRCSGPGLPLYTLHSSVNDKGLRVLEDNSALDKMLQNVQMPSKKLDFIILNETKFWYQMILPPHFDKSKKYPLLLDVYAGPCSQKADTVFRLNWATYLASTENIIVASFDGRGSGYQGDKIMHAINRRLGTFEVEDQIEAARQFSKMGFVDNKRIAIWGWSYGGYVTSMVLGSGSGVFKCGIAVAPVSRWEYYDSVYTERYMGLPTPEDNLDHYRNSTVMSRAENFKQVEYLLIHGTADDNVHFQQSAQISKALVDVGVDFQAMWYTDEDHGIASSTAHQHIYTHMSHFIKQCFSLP
A: 5.51
